- MEASUREMENT_TARGET: SARS-CoV-2 M^pro (main protease, 3CL^pro, NSP5) (Severe acute respiratory syndrome coronavirus 2, UniProt P0DTD1)
PARAMETER: Ki (µM)
Write the number in µM without appending the unit.

Short answer for O=C(NCCN1CCCC1)N1c2ccccc2Sc2ccccc21 : Ki was 80
